B1: NECAB1 (parent)
chain: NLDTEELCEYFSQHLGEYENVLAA

- Variants of: B1
- protocol-text: protein stability index of a GFP-peptide fusion (GPS, HEK-293T) (PSI 1-6); higher = more stable;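 also: lentivirally expressed fusions sorted by FACS into six bins by GFP to DsRed ratio, PSI derived from sequencing read proportions per bin multiplied by bin number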
- run-parameters: c terminus: a fixed tail appended
quantity-name: protein stability index

>>> df
    mutation_descriptor  obs_value
 0                 L22N       4.36
 1                 A24P       3.43
 2                  E5D       3.04
 3                 E19M       2.18
 4                  N1L       2.53
 5                 H14F       2.02
 6                 E19R       1.84
 7                  D3K       1.86
 8                  C8V       3.04
 9                 Y18L        2.3
10                  N1G       3.68
11                 Y18W        1.8
12                 F11T       4.82
13                 L15A       3.36
14                  T4D       4.33
15                 L22F       1.86
16                 Y10I       3.97
17                 L15D       4.63
18                 Q13P       3.71
19                 A23P       3.65
20                 H14N       2.55
21                 L15V       2.04
22                 H14W       1.84
23                 S12E       3.83
24                 S12R          2
25                  D3C       2.12
26                  D3I       1.41
27                 A23K       2.17
28                 Y10V       4.24
29                 V21Y       1.98
30                 L15M       3.07
31                 Q13C       2.06
32                  E6A       2.27
33                 V21F       2.08
34                 H14Q       3.35
35                 L22Y       3.52
36                 E17P       2.64
37                  E9N       2.21
38                 E19W       1.82
39                  C8I       2.52
40                  N1A       2.94
41                 E17Y       2.65
42                  L2Q       4.12
43                  L7M       4.26
44                  T4P       3.56
45                 A24W       2.27
